- SYSTEM_NAME: Triggering receptor expressed on myeloid cells 2 (Homo sapiens)
- Sequence (Q9NZC2 whole entry): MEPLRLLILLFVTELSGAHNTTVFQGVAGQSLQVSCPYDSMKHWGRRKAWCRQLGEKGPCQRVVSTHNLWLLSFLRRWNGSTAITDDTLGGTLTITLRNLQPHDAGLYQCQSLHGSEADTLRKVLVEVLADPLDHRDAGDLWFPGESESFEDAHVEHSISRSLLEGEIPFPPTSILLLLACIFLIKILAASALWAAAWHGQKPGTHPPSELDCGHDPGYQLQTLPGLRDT
- PROCEDURE_TEXT: Agonist activity at human TREM2 expressed in HEK cells co-expressing human DAP12 assessed as increase in Syk phosphorylation incubated for 30 mins by AlphaLISA assay
ENDPOINT: pEC50
Scale explanation: pEC50 corresponds to minus log10 of a concentration expressed in moles per litre.

[
  {
    "MOLECULE": "Cc1cc([C@@H]2CN(c3nc(-c4ccc(Cl)cc4F)c4nc(C(F)F)n(C)c(=O)c4n3)CCO2)ccn1",
    "pEC50": 9.00
  },
  {
    "MOLECULE": "Cc1cc([C@@H]2CN(c3cc4c(=O)n(C)c(C(F)F)nc4c(-c4ccc(Cl)cc4F)n3)CCO2)ccn1",
    "pEC50": 8.52
  }
]

Let me check: COc1cc([C@H]2CN(c3nc(-c4ccc(Cl)cc4F)c4nc(C(F)(F)F)n(C)c(=O)c4n3)CCO2)ccn1 , system Triggering receptor expressed on myeloid cells 2 (Homo sapiens), measured pEC50 is 8.40

Let me check: C[C@H]1CN(c2nc(-c3ccc(Cl)cc3F)c3nc(C(F)(F)F)n(C)c(=O)c3n2)C[C@@H](c2cnn(C3CC3)c2)O1 , system Triggering receptor expressed on myeloid cells 2 (Homo sapiens), measured pEC50 is 8.70

Let me check: Cn1cc([C@H]2CN(c3nc(-c4ccc(Cl)cc4F)c4nc(C(F)F)n(C)c(=O)c4n3)CCO2)cn1 , system Triggering receptor expressed on myeloid cells 2 (Homo sapiens), measured pEC50 is 8.30

Let me check: Cc1cc(C2CN(c3nc(-c4ccc(Cl)cc4F)c4nc(C(F)F)n(C)c(=O)c4n3)CCO2)ccn1 (stereo unspecified) , system Triggering receptor expressed on myeloid cells 2 (Homo sapiens), measured pEC50 is 8.70
